Values compiled from paper PMC12305662.

Molecular target: CYP1A (Homo sapiens)
Sequence (P05177 2-516 limits assumed): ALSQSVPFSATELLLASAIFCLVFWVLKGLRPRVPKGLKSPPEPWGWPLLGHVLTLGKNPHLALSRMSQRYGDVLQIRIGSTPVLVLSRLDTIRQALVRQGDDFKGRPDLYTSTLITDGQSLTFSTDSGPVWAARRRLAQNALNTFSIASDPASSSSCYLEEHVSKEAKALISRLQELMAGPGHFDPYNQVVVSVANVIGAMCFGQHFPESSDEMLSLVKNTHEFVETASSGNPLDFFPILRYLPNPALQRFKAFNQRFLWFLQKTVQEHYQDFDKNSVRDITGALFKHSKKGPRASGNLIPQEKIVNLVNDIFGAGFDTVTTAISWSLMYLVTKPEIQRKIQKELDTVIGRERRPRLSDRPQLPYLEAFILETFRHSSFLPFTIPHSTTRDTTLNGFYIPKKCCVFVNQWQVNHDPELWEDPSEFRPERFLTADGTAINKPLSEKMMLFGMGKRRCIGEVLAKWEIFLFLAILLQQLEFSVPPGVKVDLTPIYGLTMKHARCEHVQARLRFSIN
Test Readout: pIC50
One number for each entry, as −log10 of the molar value.

structure_as_smiles=COc1ccc(CNc2ccc(Cc3ccncc3)cc2)cc1 measured_number=6.09

Hey, quick one: what's pIC50 for each of these?
1. O=S(=O)(Nc1ccc(Cc2ccncc2)cc1)c1ccc(OC(F)(F)F)cc1
2. O=C(Nc1ccc(Cc2ccncc2)cc1)[C@H](Cc1c[nH]c2ccccc12)NCc1ccccc1

Result:
1: 5.23; 2: 6.96

---

Target: CYP142 (Mycobacterium tuberculosis, UniProt P9WPL5)
Sequence (P9WPL5 whole entry, the tested form may be a part): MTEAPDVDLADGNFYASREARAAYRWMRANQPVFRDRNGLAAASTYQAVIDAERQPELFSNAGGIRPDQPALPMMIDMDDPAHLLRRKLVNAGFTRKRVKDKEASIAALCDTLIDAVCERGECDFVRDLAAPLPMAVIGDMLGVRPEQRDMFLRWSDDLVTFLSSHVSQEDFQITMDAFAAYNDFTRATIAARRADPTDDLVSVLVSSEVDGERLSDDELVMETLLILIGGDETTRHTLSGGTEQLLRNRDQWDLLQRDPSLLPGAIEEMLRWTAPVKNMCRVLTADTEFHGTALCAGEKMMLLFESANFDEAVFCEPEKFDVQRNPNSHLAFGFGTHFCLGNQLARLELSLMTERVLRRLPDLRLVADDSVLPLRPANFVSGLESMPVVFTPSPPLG
Conditions: fragment 1 mM, P450 4-6 µM; relative to DMSO (418.5 nm)
Test Readout: Δλmax (nm) CYP142, fragment screen
Numbers only, in nm.

structure_as_smiles=N#Cc1ccccn1 measured_number=0
structure_as_smiles=Nc1cccnc1N measured_number=0
structure_as_smiles=O=C(O)c1cccc(O)n1 measured_number=0
structure_as_smiles=O=[N+]([O-])c1ccc(Br)c2ccncc12 measured_number=0
structure_as_smiles=Nc1cccc(Cn2cncn2)c1 measured_number=1.5
structure_as_smiles=Nc1ccc(Br)cn1 measured_number=0
structure_as_smiles=COC(=O)c1ccnc(N)c1 measured_number=0
structure_as_smiles=O=C(O)CCc1nc2ccccc2[nH]1 measured_number=0
structure_as_smiles=Nn1cccc1C(=O)O measured_number=0
structure_as_smiles=Cc1n[nH]cc1Br measured_number=1.5

Give Δλmax (nm) CYP142, fragment screen for all compounds that follow.
1. O=C1CCN(c2ccccc2)N1
2. Brc1c[nH]cn1
3. N#Cc1cccc(-n2ccnc2)c1
4. Cc1cc(C(=O)O)[nH]n1
5. Nc1ccncc1
6. Cc1cc(N)n(-c2ccccc2)n1
7. CNCc1ccc(-c2ccncc2)cc1

Result:
1.5
3
3
0
1.5
0
1.5

For each of the items listed, what is its Δλmax (nm) CYP142, fragment screen?
1. O=C(O)c1ccc(-n2cccn2)cc1
2. NC1=NN(c2ccccc2)C(=O)C1
3. C#Cc1cccnc1
4. c1ccc2c(c1)CCNC2
5. CCc1nc(C)c[nH]1
6. N#Cc1ccncc1

Result:
1: 0; 2: 0; 3: 0; 4: 1.5; 5: 0; 6: 0

Can you give me Δλmax (nm) CYP142, fragment screen for all of these, one by one?
1. Nc1ccc(-n2cccn2)cc1
2. OB(O)c1ccccc1
3. COc1ccc(C(C)=O)cn1

Result:
1. 0
2. 0
3. 0

Q: Can you look up Δλmax (nm) CYP142, fragment screen on CYP142 (Mycobacterium tuberculosis, UniProt P9WPL5) for O=S(=O)(O)c1ccccn1 ?
Result: 0
